Molecular target: αvβ5 integrin (Homo sapiens, UniProt P06756+P18084)
Construct: chimeras comprising the extracellular domain of αvβ3, αvβ5, α5β1, and αIIbβ3 linked to the Fc domain of either mouse IgG; purchased Celltech plc (supplied, no catalogue number); host or cells: unpurified hybridoma / tissue culture supernatant from secreting cells
Sequence (P06756 31-992 limits assumed): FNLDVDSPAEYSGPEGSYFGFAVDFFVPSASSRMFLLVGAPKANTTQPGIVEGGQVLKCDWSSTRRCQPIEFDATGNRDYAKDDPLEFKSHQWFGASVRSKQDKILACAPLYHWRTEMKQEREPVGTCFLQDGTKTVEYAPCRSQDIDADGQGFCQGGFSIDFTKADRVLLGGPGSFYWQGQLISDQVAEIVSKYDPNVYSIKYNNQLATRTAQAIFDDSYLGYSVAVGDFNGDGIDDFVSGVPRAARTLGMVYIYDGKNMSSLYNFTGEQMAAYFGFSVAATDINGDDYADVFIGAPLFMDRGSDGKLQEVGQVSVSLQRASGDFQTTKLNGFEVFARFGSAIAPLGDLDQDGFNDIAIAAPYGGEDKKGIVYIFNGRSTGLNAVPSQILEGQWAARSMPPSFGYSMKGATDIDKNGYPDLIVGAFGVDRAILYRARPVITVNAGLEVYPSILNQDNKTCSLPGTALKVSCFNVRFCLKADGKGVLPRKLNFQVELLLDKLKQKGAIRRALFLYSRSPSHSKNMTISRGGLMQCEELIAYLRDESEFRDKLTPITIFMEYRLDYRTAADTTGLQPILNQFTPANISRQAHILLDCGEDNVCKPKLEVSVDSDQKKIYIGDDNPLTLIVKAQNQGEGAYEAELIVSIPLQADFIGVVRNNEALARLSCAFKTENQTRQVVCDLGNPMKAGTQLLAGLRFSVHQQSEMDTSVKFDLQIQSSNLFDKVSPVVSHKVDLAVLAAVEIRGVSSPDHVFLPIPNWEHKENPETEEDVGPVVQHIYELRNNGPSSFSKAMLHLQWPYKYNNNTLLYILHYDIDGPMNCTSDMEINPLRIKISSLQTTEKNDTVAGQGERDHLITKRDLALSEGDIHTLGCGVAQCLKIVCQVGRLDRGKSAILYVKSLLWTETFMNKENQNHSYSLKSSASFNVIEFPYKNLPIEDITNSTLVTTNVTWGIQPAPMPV
Sequence (P18084 24-719 limits assumed): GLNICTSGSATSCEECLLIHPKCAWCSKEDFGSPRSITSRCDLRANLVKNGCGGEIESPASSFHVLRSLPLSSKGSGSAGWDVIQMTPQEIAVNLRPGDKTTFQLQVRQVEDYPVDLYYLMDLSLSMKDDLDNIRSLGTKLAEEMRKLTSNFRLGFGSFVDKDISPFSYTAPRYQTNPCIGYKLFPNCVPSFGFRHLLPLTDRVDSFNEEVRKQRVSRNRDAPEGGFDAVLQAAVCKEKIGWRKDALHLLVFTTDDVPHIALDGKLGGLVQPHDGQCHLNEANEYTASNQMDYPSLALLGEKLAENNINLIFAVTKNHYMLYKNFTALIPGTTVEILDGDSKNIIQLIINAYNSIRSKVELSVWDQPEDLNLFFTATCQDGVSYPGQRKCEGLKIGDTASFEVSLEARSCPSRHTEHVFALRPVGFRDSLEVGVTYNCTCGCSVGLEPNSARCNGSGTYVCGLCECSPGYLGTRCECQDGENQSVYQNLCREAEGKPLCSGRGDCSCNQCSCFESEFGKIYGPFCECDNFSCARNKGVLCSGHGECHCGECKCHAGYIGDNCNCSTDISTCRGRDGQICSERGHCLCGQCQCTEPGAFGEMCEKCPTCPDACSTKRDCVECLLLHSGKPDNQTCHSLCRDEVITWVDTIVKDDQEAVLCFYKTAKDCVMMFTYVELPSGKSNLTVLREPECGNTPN
Assay: ELISA: biotinylated vitronectin binding to captured soluble αvβ5-mFc in the presence of RGD peptides
Details: text b200; read-out: IC50 for αvβ5
Text: Four different soluble integrins were supplied by Celltech plc. Soluble forms of αvβ3, αvβ5, α5β1, and αIIbβ3 integrin were generated by constructing chimeras comprising the extracellular domain of αvβ3, αvβ5, α5β1, and αIIbβ3 linked to the Fc domain of either mouse IgG (αvβ3-mFc, αvβ5-mFc, and αIIbβ3-mFc) or human IgG (α5β1-hFc) as described by Stephens et al., Cell Adhes. Commun., 7:377-390 (2000) and Coe et al., J. Biol. Chem., 276:35854-35866 (2001). […]
READOUT LABEL: pIC50
By convention, pIC50 is the negative base-10 log of a molar concentration.

Retrieve pIC50 measured for COc1ccc(C[C@@H]2NC(=O)[C@H](CC(=O)O)NC(=O)CNC(=O)[C@H](CCCNC(=N)N)NC(=O)[C@H](CCCCNC(=O)c3ccc(F)cc3)NC2=O)cc1 and print it.
5.77

====

Target: αvβ5 integrin (Homo sapiens, UniProt P06756+P18084)
Construct: chimeras comprising the extracellular domain of αvβ3, αvβ5, α5β1, and αIIbβ3 linked to the Fc domain of either mouse IgG; purchased Celltech plc (supplied, no catalogue number); host or cells: unpurified hybridoma / tissue culture supernatant from secreting cells
Assay: ELISA: biotinylated vitronectin binding to captured soluble αvβ5-mFc in the presence of RGD peptides
Settings: Table 2, no unit printed (b200 gives same values in μM); read-out: Mean IC50, αvβ5
READOUT LABEL: IC50
Remember to put the unit after the number in your answer.

Retrieve IC50 measured for N=C(N)NCCC[C@@H]1NC(=O)[C@H](CCCCNC(=O)c2ccc(F)cc2)NC(=O)[C@@H](Cc2ccccc2)NC(=O)[C@H](CC(=O)O)NC(=O)CNC1=O and print it.
6.01 µM
